Assay target: Cholinesterase (Homo sapiens)
Sequence (P06276 whole entry): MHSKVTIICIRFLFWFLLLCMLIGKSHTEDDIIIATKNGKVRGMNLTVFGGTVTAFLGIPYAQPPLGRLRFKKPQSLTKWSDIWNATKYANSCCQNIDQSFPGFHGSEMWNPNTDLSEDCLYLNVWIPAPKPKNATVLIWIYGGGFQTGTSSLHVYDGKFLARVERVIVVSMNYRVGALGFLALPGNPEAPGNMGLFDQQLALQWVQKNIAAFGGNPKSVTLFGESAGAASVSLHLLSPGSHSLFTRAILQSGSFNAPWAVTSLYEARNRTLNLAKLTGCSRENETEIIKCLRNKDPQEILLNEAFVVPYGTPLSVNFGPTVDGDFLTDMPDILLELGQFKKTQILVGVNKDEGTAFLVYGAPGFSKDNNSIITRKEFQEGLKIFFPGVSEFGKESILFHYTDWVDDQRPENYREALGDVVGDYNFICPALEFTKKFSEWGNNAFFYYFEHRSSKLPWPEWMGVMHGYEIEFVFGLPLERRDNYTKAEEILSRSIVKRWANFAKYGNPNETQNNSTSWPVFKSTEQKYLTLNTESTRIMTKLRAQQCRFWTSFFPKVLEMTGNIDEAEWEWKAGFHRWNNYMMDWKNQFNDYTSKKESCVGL
Quantity kind: Ki (nM)
Answer with a number only, understood to be in nM.

[Q] Can you look up Ki on Cholinesterase (Homo sapiens) for COc1cc(O)c(-c2cc(=O)c3c(O)cc(O)cc3o2)cc1C/C=C(\C)CCC=C(C)C ?
[A] 1740

---

Let's look at some compounds and their measured IC50.
Assay target: Acetylcholinesterase (Homo sapiens, UniProt P22303)
Sequence (P22303 whole entry): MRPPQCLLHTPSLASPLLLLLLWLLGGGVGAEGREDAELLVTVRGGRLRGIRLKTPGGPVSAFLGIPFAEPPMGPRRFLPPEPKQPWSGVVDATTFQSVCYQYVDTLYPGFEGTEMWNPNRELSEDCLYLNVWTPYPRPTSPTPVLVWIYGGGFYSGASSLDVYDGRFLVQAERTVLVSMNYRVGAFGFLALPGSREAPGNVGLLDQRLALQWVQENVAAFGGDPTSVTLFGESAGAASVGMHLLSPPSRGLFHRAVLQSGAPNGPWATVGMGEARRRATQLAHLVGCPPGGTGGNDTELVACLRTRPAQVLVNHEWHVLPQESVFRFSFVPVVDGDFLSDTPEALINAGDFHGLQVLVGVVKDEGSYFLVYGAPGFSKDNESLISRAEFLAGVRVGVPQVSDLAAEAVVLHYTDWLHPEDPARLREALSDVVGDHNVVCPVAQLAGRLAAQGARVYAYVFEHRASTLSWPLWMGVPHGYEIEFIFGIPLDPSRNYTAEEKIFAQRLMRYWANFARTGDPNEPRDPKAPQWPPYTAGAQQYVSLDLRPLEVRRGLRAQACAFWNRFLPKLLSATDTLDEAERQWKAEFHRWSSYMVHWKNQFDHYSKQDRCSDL
Procedure summary: Inhibition of AChE (unknown origin)
Give just the number in µM; leave the unit off.

Solved cases below.
[
  {
    "Compound": "O=c1c(O)c(-c2cc(O)c(O)c(O)c2)oc2cc(O)cc(O)c12",
    "Quantitative readout": 0.012
  },
  {
    "Compound": "O=c1c(O)c(-c2ccc(O)c(O)c2)oc2cc(O)cc(O)c12",
    "Quantitative readout": 354
  },
  {
    "Compound": "O=c1cc(-c2ccc(O)cc2)oc2cc(O)cc(O)c12",
    "Quantitative readout": 0.012
  },
  {
    "Compound": "C[C@@H]1O[C@@H](OC[C@H]2O[C@@H](Oc3c(-c4ccc(O)c(O)c4)oc4cc(O)cc(O)c4c3=O)[C@H](O)[C@@H](O)[C@@H]2O)[C@H](O)[C@H](O)[C@H]1O",
    "Quantitative readout": 0.012
  },
  {
    "Compound": "COc1cc(O)c(-c2cc(=O)c3c(O)cc(O)cc3o2)cc1C/C=C(\\C)CCC=C(C)C",
    "Quantitative readout": 11
  },
  {
    "Compound": "O=c1c(O)c(-c2ccccc2)oc2cc(O)cc(O)c12",
    "Quantitative readout": 0.012
  },
  {
    "Compound": "O=c1c(O)c(-c2ccc(O)c(O)c2)oc2cc(O)ccc12",
    "Quantitative readout": 0.012
  },
  {
    "Compound": "COc1cc2occ(-c3ccc(OC4CCN(Cc5ccccc5)CC4)cc3)c(=O)c2cc1OC",
    "Quantitative readout": 0.093
  }
]

[Q] Quick one: IC50 for CC(C)=CCC/C(C)=C/Cc1cc(-c2cc(=O)c3c(O)cc(O)cc3o2)c(O)cc1O ?
[A] 16.2

[Q] Fill blank: measured IC50 of the compound COc1cc2occ(-c3ccc(N4CCCC4)cc3)c(=O)c2cc1OC is ____.
[A] 1.63

[Q] Any idea what its IC50 is? The compound is O=c1c(OC2O[C@H](CO)[C@H](O)[C@H](O)[C@H]2O)c(-c2ccc(O)cc2)oc2cc(O)cc(O)c12 (stereo partly drawn) [KAEMPFEROL 3-O-D-GALACTOSIDE]
[A] 0.012
